Target: human CCR5 (Homo sapiens)
Construct: expressed in transfected cells; host or cells: CHO-K1 cells, stably transfected with pCKR5 (pcDNA3.1 backbone), Geneticin-selected
Sequence (P51681 whole entry): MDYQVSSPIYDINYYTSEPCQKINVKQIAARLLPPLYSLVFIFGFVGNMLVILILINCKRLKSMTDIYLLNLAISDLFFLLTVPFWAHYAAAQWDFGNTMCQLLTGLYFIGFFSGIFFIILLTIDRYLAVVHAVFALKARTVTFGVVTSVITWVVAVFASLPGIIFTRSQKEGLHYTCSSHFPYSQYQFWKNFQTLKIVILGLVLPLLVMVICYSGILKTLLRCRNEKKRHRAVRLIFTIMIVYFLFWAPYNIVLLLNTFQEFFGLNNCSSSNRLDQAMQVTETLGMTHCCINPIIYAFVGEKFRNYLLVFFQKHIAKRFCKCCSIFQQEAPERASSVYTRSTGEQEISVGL
Assay: Inhibition of [125I]-RANTES binding to CCR5/CHO cells (CCR5 antagonist activity)
Conditions: test compound 1 μM, 100 pM [125I]-RANTES as ligand, room temperature, 40 minutes
Measured Binding Inhibitory Ratio (%) values are reported for all entries that follow.

[
  {
    "Compound": "CCCCOCCOc1ccc(-c2ccc3c(c2)C=C(C(=O)Nc2ccc(SCc4cncn4CCC)cc2)CCCN3CC(C)C)cc1 [Compound 8]",
    "Binding Inhibitory Ratio (%)": "99%"
  },
  {
    "Compound": "CCCCOCCOc1ccc(-c2ccc3c(c2)C=C(C(=O)Nc2ccc([S+]([O-])Cc4cncn4CCC)cc2)CCCN3CC(C)CO)cc1 (stereo not shown) [Compound 32]",
    "Binding Inhibitory Ratio (%)": "100%"
  },
  {
    "Compound": "CCCOCCOc1ccc(-c2ccc3c(c2)C=C(C(=O)Nc2ccc([S@@+]([O-])Cc4cncn4CCC)cc2)CCCN3CCC)cc1.CS(=O)(=O)O [Compound 45]",
    "Binding Inhibitory Ratio (%)": "96%"
  }
]

Using the record for CCCCOCCOc1ccc(-c2ccc3c(c2)C=C(C(=O)Nc2ccc([S+]([O-])Cc4nncn4CCC)cc2)CCCN3CCC)cc1 (single isomer, unassigned; (-)) [Compound 52] , report its Binding Inhibitory Ratio (%).
96%

Any idea what Binding Inhibitory Ratio (%) was measured for CCCCOCCOc1ccc(-c2ccc3c(c2)C=C(C(=O)Nc2ccc(SCc4cncn4CCC)cc2)CCCN3CC(C)C)cc1 [Compound 6] ?
98%
